Target: hα7-wt nAChR (Homo sapiens)
Sequence (P36544 23-502): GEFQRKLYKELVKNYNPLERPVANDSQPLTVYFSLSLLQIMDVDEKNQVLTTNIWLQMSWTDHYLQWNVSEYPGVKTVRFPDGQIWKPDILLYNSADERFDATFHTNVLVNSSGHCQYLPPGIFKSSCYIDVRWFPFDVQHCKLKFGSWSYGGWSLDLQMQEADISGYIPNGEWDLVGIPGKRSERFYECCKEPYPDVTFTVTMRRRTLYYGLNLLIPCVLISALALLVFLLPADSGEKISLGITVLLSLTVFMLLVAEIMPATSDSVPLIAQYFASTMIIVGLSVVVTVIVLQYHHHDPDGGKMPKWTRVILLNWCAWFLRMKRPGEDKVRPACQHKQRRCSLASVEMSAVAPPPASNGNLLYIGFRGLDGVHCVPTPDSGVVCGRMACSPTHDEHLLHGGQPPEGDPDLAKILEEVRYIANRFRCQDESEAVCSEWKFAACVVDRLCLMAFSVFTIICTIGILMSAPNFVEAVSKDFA
Experiment: Ca2+ flux imaging (FDSS) (Protocol B), potentiation of the choline response
Conditions: Ca2+ assay as described in D.1; "<5" = activity did not reach a top plateau at maximal concentration
test_readout: pEC50
pEC50 field: float, defined as -log10 of concentration (mol/L).

Consider the following illustrative entries.
Cc1cc(-c2cc(Nc3ccc(F)c(F)c3)nn2CCC(=O)N(C)C)cc(C)n1 [compound 119]    5.96
Cc1cc(-c2cc(Nc3cccc(Cl)c3)nn2CC(=O)NCC2CC2)ccn1 [compound 163]    6.49
Cc1ccnc(-c2cc(Nc3ccc(F)c(C(F)(F)F)c3)nn2CCC(=O)N(C)C)c1 [compound 23]    6.20
CCNC(=O)Cn1nc(Nc2cccc(Cl)c2)cc1-c1ccnc(C)c1 [compound 111]    5.77
Cc1cc(-c2cc(Nc3ccc(F)c(F)c3)nn2CC(=O)NC2CCC2)cc(C)n1 [compound 171]    6.83

In the following, a different molecule is considered.
Exercise: Request the reported pEC50 associated with Cc1cc(-c2cc(Nc3cccc(OC(F)(F)F)c3)nn2CCC(=O)N(C)C)cc(C)n1 [compound 165]
Key: 6.44

* * *

Target: hα7-wt nAChR-expressing GH4C1 cells (Homo sapiens, UniProt P36544)
Construct: expressed in transfected cells
Sequence (P36544 23-502): as above
Test: Patch-clamp current recording (whole-cell voltage clamp), potentiation of the choline current and PAM type
Format: cell-based
Design: key: Type 0 compounds minimally enhance the effect size of the current elicited by 1 mM choline.; Type 1 compounds enhance the effect size of the current elicited by 1 mM choline but minimally alter the kinetics of the receptor.; Type 2 compounds enhance the effect size of the current elicited by 1 mM choline while reducing the rate and/or the extent of desensitization.; Type 3 compounds enhance the effect size of the current elicited by 1 mM choline. When tested at higher concentrations up to 10 μM they completely inhibit desensitization, in particular a 1 mM choline application of 250 milliseconds.; Type 4 compounds allow for an initial desensitization of the receptor followed by a re-opening of the receptor during agonist application
Details: 1 mM choline
test_readout: PAM type
Reply briefly: the number, and no unit.

Record excerpt, results attached:
CNC(=O)Cn1nc(Nc2ccc(F)c(F)c2F)cc1-c1ccnc(C)c1 [compound 107]    2
CCNC(=O)Cn1nc(Nc2ccc(F)c(C(F)(F)F)c2)cc1-c1ccnc(C)c1 [compound 38]    2
CCNc1cc(-c2cc(Nc3cc(F)cc(F)c3)nn2C[C@@H](O)CC)ccn1 [compound 8]    1
CC[C@H](O)Cn1nc(Nc2ccc(F)c(F)c2)cc1-c1ccnc(C)c1 [compound 45]    1
COc1cc(Cl)cc(Nc2cc(-c3ccnc(C)c3)n(CCC(=O)N(C)C)n2)c1 [compound 126]    2
C[C@H](O)Cn1nc(Nc2cc(F)c(F)c(F)c2)cc1-c1ccc2c(c1)OCCO2 [compound 85]    0

Exercise: Tell me the measured PAM type of CCNC(=O)Cn1nc(Nc2cccc(Cl)c2)cc1-c1ccnc(C)c1 [compound 111] , please.
Key: 2

Exercise: Looking for the measured PAM type of COc1ccc(-c2cc(Nc3ccc(F)c(F)c3)nn2CCC(=O)N(C)C)cc1 [compound 102] , can you help?
Key: 4

* * *

Biological target: hα7-wt nAChR-expressing GH4C1 cells (Homo sapiens, UniProt P36544)
Construct: expressed in transfected cells
Assay: Patch-clamp current recording (whole-cell voltage clamp), potentiation of the choline current and PAM type
Assay type: cell-based
Set-up: key: Type 0 compounds minimally enhance the effect size of the current elicited by 1 mM choline.; Type 1 compounds enhance the effect size of the current elicited by 1 mM choline but minimally alter the kinetics of the receptor.; Type 2 compounds enhance the effect size of the current elicited by 1 mM choline while reducing the rate and/or the extent of desensitization.; Type 3 compounds enhance the effect size of the current elicited by 1 mM choline. When tested at higher concentrations up to 10 μM they completely inhibit desensitization, in particular a 1 mM choline application of 250 milliseconds.; Type 4 compounds allow for an initial desensitization of the receptor followed by a re-opening of the receptor during agonist application
Conditions: 1 mM choline
test_readout: PAM type
Number only, no unit.

CNC(=O)Cn1nc(Nc2ccc3c(c2)OC(F)(F)O3)cc1-c1cc(C)nc(C)c1    2

Exercise: Tell me reported PAM type for Cc1cc(-c2cc(Nc3cccc(Cl)c3)nn2CCC(=O)N(C)C)cc(C)n1 , tested with hα7-wt nAChR-expressing GH4C1 cells (Homo sapiens, UniProt P36544).
Key: 2

Exercise: Recorded PAM type for Cc1cc(-c2cc(Nc3cccc(Cl)c3F)nn2CCC(=O)N(C)C)ccn1 with hα7-wt nAChR-expressing GH4C1 cells (Homo sapiens, UniProt P36544), please?
Key: 1

Reference for the values: patent US8779158B2
